Biological target: T1, human C5aR (CD88) (human, UniProt P21730 1-350)
T1 sequence (looked up): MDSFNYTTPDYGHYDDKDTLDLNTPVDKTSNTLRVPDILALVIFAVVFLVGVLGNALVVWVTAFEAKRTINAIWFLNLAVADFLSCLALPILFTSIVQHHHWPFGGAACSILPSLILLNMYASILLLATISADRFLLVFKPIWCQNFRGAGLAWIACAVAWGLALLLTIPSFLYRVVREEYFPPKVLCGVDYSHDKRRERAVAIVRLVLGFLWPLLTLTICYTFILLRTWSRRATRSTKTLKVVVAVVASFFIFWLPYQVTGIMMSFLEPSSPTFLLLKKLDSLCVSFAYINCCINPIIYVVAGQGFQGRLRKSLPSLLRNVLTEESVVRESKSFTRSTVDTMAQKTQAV
Test: cell-based or functional assay
Starred links: 1 amine or outer side, 2 acyl side, 3 side chain; linkers in the order of their positions; H or OH if unused. Non-standard residues stand in square brackets, D forms with d. No end group written: not given here. Edn = Cys(CH2-CH2-4-pyridyl), O=C([C@H](CSCCc1ccncc1)N[*:1])[*:2]; Ebo = Cys(4-picolyl), O=C([C@H](CSCc1ccncc1)N[*:1])[*:2]; dCha = N[C@H](CC1CCCCC1)C(=O)O; Orn = NCCC[C@H](N)C(=O)O
IC50 activity group, enzyme release assay by entry:
parameter: IC50 activity group, enzyme release assay

INSERT INTO assay_data (binder, readoutvalue) VALUES
  ('Ac-F[Orn]P[dCha]W[Ebo] (lactam (positions not given here); not fully specified (bridges); printed as Ac-Phe-[Orn-Pro-cha-Trp-Ebo]) [Ac-Phe-[Orn-Pro-cha-Trp-Ebo]]', '≤ 2 µM'),
  ('Ac-F[Orn]P[dCha]W[Edn] (lactam (positions not given here); not fully specified (bridges); printed as Ac-Phe-[Orn-Pro-cha-Trp-Edn]) [Ac-Phe-[Orn-Pro-cha-Trp-Edn]]', '≤ 2 µM'),
  ('Ac-F[Orn]P[dCha]AR (lactam (positions not given here); not fully specified (bridges); printed as Ac-Phe-[Orn-Pro-cha-Ala-Arg]) [Ac-Phe-[Orn-Pro-cha-Ala-Arg]]', '> 2 µM'),
  ('FXPXWX (not fully specified; Ac-; Orn2; cha4 (D); Har6; cyclic [2-6]) [Ac-Phe-[Orn-Pro-cha-Trp-Har]]', '≤ 2 µM');
